# Assay Comment: Ocular tissue concentrations (aqueous humor, vitreous humor, iris, retina, choroid, cornea) after topical ocular, subcutaneous and intravitreal administration
# Type: in vivo, New Zealand White rabbits
# Study Conditions: New Zealand White, rabbit, choroid, other: intravitreal, 2.5 mg/eye, Choroid, 48 hr, right eye, intravitreal 2.5 mg/eye (group 5), individual animals; read-out: Conc. (ng/g) OD
Quantity Name: concentration at 48 hr (ng/g)
Number only, in ng/g; omit the unit.

Enquiry: Item under review: COC(=O)N[C@@H](Cc1ccccc1)C(=O)N[C@@H](Cc1ccc(NS(=O)(=O)O)cc1)c1csc(-c2cccs2)n1 [Compound 1] . Reported concentration at 48 hr?
Return: 109000

----------
# Assay Comment: Ocular tissue concentrations (aqueous humor, vitreous humor, iris, retina, choroid, cornea) after topical ocular, subcutaneous and intravitreal administration
# Format: in vivo, New Zealand White rabbits
# Study Conditions: New Zealand White, rabbit, iris, subcutaneous, 5 mg/kg/dose, Iris, 4 hr; free acid, subcutaneous 5 mg/kg/dose, Group 3; read-out: Iris Average
# Procedure: To measure the concentration of Compound 1 in plasma and ocular tissues following topical ocular, subcutaneous, and intravitreal administration, New Zealand White rabbits were administered Compound 1, and plasma and ocular samples were collected at pre-determined time points. […] Ocular tissue samples from both eyes of each animal were collected and weights were recorded. Plasma and ocular tissue sample concentrations of Compound 1 were determined by LC-MS/MS. […]
Quantity Name: concentration at 4 h (ng/g)
Number only, in ng/g; omit the unit.

Enquiry: Item under review: "COC(=O)N[C@@H](Cc1ccccc1)C(=O)N[C@@H](Cc1ccc(NS(=O)(=O)O)cc1)c1csc(-c2cccs2)n1" . Reported concentration at 4 h?
Return: 17.5

----------
# Assay Comment: Plasma concentrations and pharmacokinetic parameters after topical ocular, subcutaneous and intravitreal administration
# Assay type: in vivo, New Zealand White rabbits
# Study Conditions: New Zealand White, rabbit, plasma, other: intravitreal, 2.5 mg/eye, intravitreal 2.5 mg/eye (~1.55 mg/kg), solution; 72.0 hr; read-out: plasma Conc., individual rabbit
Where a name gives a salt, the structure may show the parent alone.
Quantity Name: concentration at 72 hr (ng/mL)
Number only, in ng/mL; omit the unit.

Enquiry: Item under review: COC(=O)N[C@@H](Cc1ccccc1)C(=O)N[C@@H](Cc1ccc(NS(=O)(=O)O)cc1)c1csc(-c2cccs2)n1 [Compound 1 sodium salt] . Reported concentration at 72 hr?
Return: 0.215

----------
# Assay Comment: Ocular tissue concentrations (aqueous humor, vitreous humor, iris, retina, choroid, cornea) after topical ocular, subcutaneous and intravitreal administration
# Type: in vivo, New Zealand White rabbits
# Study Conditions: New Zealand White, rabbit, iris homogenate, other: intravitreal, 2.5 mg/eye, Iris homogenate, 6.0 hr, OS; sodium salt, intravitreal 2.5 mg/eye, Group 4; read-out: Iris Conc. (ng/mL) OS
Quantity Name: concentration at 6 h (ng/mL)
Number only, in ng/mL; omit the unit.

Enquiry: Item under review: "COC(=O)N[C@@H](Cc1ccccc1)C(=O)N[C@@H](Cc1ccc(NS(=O)(=O)O)cc1)c1csc(-c2cccs2)n1" . Reported concentration at 6 h?
Return: 34000

----------
# Assay Comment: Ocular tissue concentrations (aqueous humor, vitreous humor, iris, retina, choroid, cornea) after topical ocular, subcutaneous and intravitreal administration
# Type: in vivo, New Zealand White rabbits
# Study Conditions: New Zealand White, rabbit, iris homogenate, other: intravitreal, 2.5 mg/eye, Iris homogenate, 48 hr, right eye, intravitreal 2.5 mg/eye (group 5), individual animals; read-out: Conc. (ng/mL) OD
Quantity Name: concentration at 48 h (ng/mL)
Number only, in ng/mL; omit the unit.

Enquiry: Item under review: COC(=O)N[C@@H](Cc1ccccc1)C(=O)N[C@@H](Cc1ccc(NS(=O)(=O)O)cc1)c1csc(-c2cccs2)n1 [Compound 1] . Reported concentration at 48 h?
Return: 1010

----------
# Assay Comment: Ocular tissue concentrations (aqueous humor, vitreous humor, iris, retina, choroid, cornea) after topical ocular, subcutaneous and intravitreal administration
# Assay type: in vivo, New Zealand White rabbits
# Study Conditions: New Zealand White, rabbit, retina, subcutaneous, 5 mg/kg/dose, Retina, 1 hr; sodium salt, subcutaneous 5 mg/kg/dose, Group 2; read-out: Retina Average
Quantity Name: concentration at 1 h (ng/g)
Number only, in ng/g; omit the unit.

Enquiry: Item under review: COC(=O)N[C@@H](Cc1ccccc1)C(=O)N[C@@H](Cc1ccc(NS(=O)(=O)O)cc1)c1csc(-c2cccs2)n1 [Compound 1] . Reported concentration at 1 h?
Return: 32.6

----------
# Assay Comment: Ocular tissue concentrations (aqueous humor, vitreous humor, iris, retina, choroid, cornea) after topical ocular, subcutaneous and intravitreal administration
# Type: in vivo, New Zealand White rabbits
# Study Conditions: New Zealand White, rabbit, choroid, other: intravitreal, 2.5 mg/eye, Choroid, 72 hr, right eye, intravitreal 2.5 mg/eye (group 5), individual animals; read-out: Conc. (ng/g) OD
Quantity Name: concentration at 72 hr (ng/g)
Number only, in ng/g; omit the unit.

Enquiry: Item under review: "COC(=O)N[C@@H](Cc1ccccc1)C(=O)N[C@@H](Cc1ccc(NS(=O)(=O)O)cc1)c1csc(-c2cccs2)n1" . Reported concentration at 72 hr?
Return: 24000

----------
# Assay Comment: Plasma concentrations and pharmacokinetic parameters after topical ocular, subcutaneous and intravitreal administration
# Format: in vivo, New Zealand White rabbits
# Study Conditions: New Zealand White, rabbit, plasma, sc, 5 mg/kg, subcutaneous administration, solution; read-out: Mean plasma Tmax (converted)
Where a name gives a salt, the structure may show the parent alone.
Quantity Name: Tmax

Enquiry: Item under review: COC(=O)N[C@@H](Cc1ccccc1)C(=O)N[C@@H](Cc1ccc(NS(=O)(=O)O)cc1)c1csc(-c2cccs2)n1 [Compound 1 sodium salt] . Reported Tmax?
Return: 15 min

----------
# Assay Comment: Ocular tissue concentrations (aqueous humor, vitreous humor, iris, retina, choroid, cornea) after topical ocular, subcutaneous and intravitreal administration
# Type: in vivo, New Zealand White rabbits
# Study Conditions: New Zealand White, rabbit, choroid, subcutaneous, 5 mg/kg/dose, Choroid, 1 hr, OS; sodium salt, subcutaneous 5 mg/kg/dose, Group 2; read-out: Choroid Conc. (ng/g) OS
Quantity Name: concentration at 1 h (ng/g)
Number only, in ng/g; omit the unit.

Enquiry: Item under review: "COC(=O)N[C@@H](Cc1ccccc1)C(=O)N[C@@H](Cc1ccc(NS(=O)(=O)O)cc1)c1csc(-c2cccs2)n1" . Reported concentration at 1 h?
Return: 144

----------
# Assay Comment: Plasma concentrations and pharmacokinetic parameters after topical ocular, subcutaneous and intravitreal administration
# Assay type: in vivo, New Zealand White rabbits
# Study Conditions: New Zealand White, rabbit, plasma, sc, 5 mg/kg; subcutaneous 5 mg/kg/dose, suspension
Quantity Name: half-life

Enquiry: Item under review: COC(=O)N[C@@H](Cc1ccccc1)C(=O)N[C@@H](Cc1ccc(NS(=O)(=O)O)cc1)c1csc(-c2cccs2)n1 [Compound 1 free acid] . Reported half-life?
Return: 2.12 h

----------
# Assay Comment: Plasma concentrations and pharmacokinetic parameters after topical ocular, subcutaneous and intravitreal administration
# Type: in vivo, New Zealand White rabbits
# Study Conditions: New Zealand White, rabbit, plasma, sc, 5 mg/kg, subcutaneous administration, suspension; read-out: Mean plasma Tmax (converted)
Quantity Name: Tmax (min)
Number only, in min; omit the unit.

Enquiry: Item under review: COC(=O)N[C@@H](Cc1ccccc1)C(=O)N[C@@H](Cc1ccc(NS(=O)(=O)O)cc1)c1csc(-c2cccs2)n1 [Compound 1 free acid] . Reported Tmax?
Return: 15

----------
# Assay Comment: Ocular tissue concentrations (aqueous humor, vitreous humor, iris, retina, choroid, cornea) after topical ocular, subcutaneous and intravitreal administration
# Assay type: in vivo, New Zealand White rabbits
# Study Conditions: New Zealand White, rabbit, vitreous humor, other: intravitreal, 2.5 mg per eye, Group 5 intravitreal 2.5 mg per eye; 24 hr; read-out: vitreous humor Average Conc.
Quantity Name: concentration at 24 h (ng/g)
Number only, in ng/g; omit the unit.

Enquiry: Item under review: COC(=O)N[C@@H](Cc1ccccc1)C(=O)N[C@@H](Cc1ccc(NS(=O)(=O)O)cc1)c1csc(-c2cccs2)n1 [Compound 1 free acid] . Reported concentration at 24 h?
Return: 409000

----------
# Assay Comment: Plasma concentrations and pharmacokinetic parameters after topical ocular, subcutaneous and intravitreal administration
# Assay type: in vivo, New Zealand White rabbits
# Study Conditions: New Zealand White, rabbit, plasma, subcutaneous, 5 mg/kg/dose, subcutaneous 5 mg/kg/dose, suspension; 4.0 hr; read-out: plasma Average
Quantity Name: concentration at 4 hr (ng/mL)
Number only, in ng/mL; omit the unit.

Enquiry: Item under review: COC(=O)N[C@@H](Cc1ccccc1)C(=O)N[C@@H](Cc1ccc(NS(=O)(=O)O)cc1)c1csc(-c2cccs2)n1 [Compound 1 free acid] . Reported concentration at 4 hr?
Return: 110

----------
# Assay Comment: Plasma concentrations and pharmacokinetic parameters after topical ocular, subcutaneous and intravitreal administration
# Assay type: in vivo, New Zealand White rabbits
# Study Conditions: New Zealand White, rabbit, plasma, topical or ocular, 0.7 mg/kg; topical ocular 1.2 mg/eye (~0.7 mg/kg/dose), solution
Structures can show the parent of a compound that is named as a salt.
Quantity Name: MRT last (h)
Number only, in h; omit the unit.

Enquiry: Item under review: COC(=O)N[C@@H](Cc1ccccc1)C(=O)N[C@@H](Cc1ccc(NS(=O)(=O)O)cc1)c1csc(-c2cccs2)n1 [Compound 1 sodium salt] . Reported MRT last?
Return: 2.98
